- Test system: KRAS patient-derived spheroids with HUVEC/MSC, viability
- methodSummary: Anticancer human tumor 323965-272-R-J2-PDC patient-derived pancreatic carcinoma cell line growth inhibition [KRAS2]
- measurementSetup: second compound 0.316 µM; first compound 1 µM; active compounds read low
- Source text: Multicellular complex tumor spheroid response to RAS pathway inhibitors in combination with a targeted agents in patient-derived cell lines with oncogenic KRAS variants from multiple cancer types A high-throughput screen of multi-cell type tumor spheroids was designed to identify active combinations of targeted small molecules and KRAS pathway inhibitors. […] Compounds. […] If the clinical Cmax for an agent had not been determined, the highest concentration tested was 10 microM. […]
quantity: viability, T/C (%)
Field: numeric (%). Do not append units.

Some solved entries appear below for comparison.
>>> recordedmeasurement("COc1cc(Nc2ncc3c(n2)-c2ccc(Cl)cc2C(c2c(F)cccc2OC)=NC3)ccc1C(=O)O + CC1OCC2(CCN(c3cnc(Sc4ccnc(N)c4Cl)c(N)n3)CC2)C1N")
32.6
>>> recordedmeasurement("CCNC(=O)CC1N=C(c2ccc(Cl)cc2)c2cc(OC)ccc2-n2c(C)nnc21 (stereo not given) + CC1OCC2(CCN(c3cnc(Sc4ccnc(N)c4Cl)c(N)n3)CC2)C1N")
28
>>> recordedmeasurement("O=C(c1cc(Cc2n[nH]c(=O)c3ccccc23)ccc1F)N1CCN(C(=O)C2CC2)CC1 + C=CC(=O)N1CCN(c2nc(=O)n(-c3c(C)ccnc3C(C)C)c3nc(-c4c(O)cccc4F)c(F)cc23)C(C)C1")
55.9
>>> recordedmeasurement("O=C(c1cc(Cc2n[nH]c(=O)c3ccccc23)ccc1F)N1CCN(C(=O)C2CC2)CC1 + CC1OCC2(CCN(c3cnc(Sc4ccnc(N)c4Cl)c(N)n3)CC2)C1N")
67.3

Moving on to another molecule below.
Challenge: Find viability, T/C (KRAS patient-derived spheroids with HUVEC/MSC, viability) for the entry CC1(C)CCC(CN2CCN(c3ccc(C(=O)NS(=O)(=O)c4ccc(NCC5CCOCC5)c([N+](=O)[O-])c4)c(Oc4cnc5[nH]ccc5c4)c3)CC2)=C(c2ccc(Cl)cc2)C1 + CC1OCC2(CCN(c3cnc(Sc4ccnc(N)c4Cl)c(N)n3)CC2)C1N
Response given: 53

----------
Measured viability, T/C, listed per entry.
- Tested on: KRAS patient-derived spheroids with HUVEC/MSC, viability
- methodSummary: Anticancer human tumor 323965-272-R-J2-PDC cell line growth inhibition [KRAS2];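 also: spheroids exposed to agents for 7 days; 100% = DMSO vehicle control viability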
- measurementSetup: second compound 0.316 µM; first compound 0.01 µM; active compounds read low
Field: numeric (%). Do not append units.

Challenge: Which viability, T/C value is on record for CC(C)n1nc(-c2ccc3oc(N)nc3c2)c2c(N)ncnc21 + C=CC(=O)N1CCN(c2nc(OCC3CCCN3C)nc3c2CCN(c2cccc4cccc(C)c24)C3)CC1CC#N ?
Response given: 18.7

Challenge: Another: CC(=O)OC12COC1CC(O)C1(C)C(=O)C(O)C3=C(C)C(OC(=O)C(O)C(NC(=O)OC(C)(C)C)c4ccccc4)CC(O)(C(OC(=O)c4ccccc4)C21)C3(C)C (stereo not drawn) + CNCc1ccccc1-c1csc(C(C)Nc2nc(C)nc3cc(OC)c(OC)cc23)c1
Response given: 23.3

Challenge: Another: CC(=O)Nc1cccc(-n2c(=O)n(C3CC3)c(=O)c3c(Nc4ccc(I)cc4F)n(C)c(=O)c(C)c32)c1 + C=CC(=O)N1CCN(c2nc(OCC3CCCN3C)nc3c2CCN(c2cccc4cccc(C)c24)C3)CC1CC#N
Response given: 27.4

meta.source: PubChem BioAssay AID1963869
